targetDesc: CXCR4 on cultured U937 and Jurkat cells (human, UniProt P61073 1-352)
Sequence (P61073 whole entry): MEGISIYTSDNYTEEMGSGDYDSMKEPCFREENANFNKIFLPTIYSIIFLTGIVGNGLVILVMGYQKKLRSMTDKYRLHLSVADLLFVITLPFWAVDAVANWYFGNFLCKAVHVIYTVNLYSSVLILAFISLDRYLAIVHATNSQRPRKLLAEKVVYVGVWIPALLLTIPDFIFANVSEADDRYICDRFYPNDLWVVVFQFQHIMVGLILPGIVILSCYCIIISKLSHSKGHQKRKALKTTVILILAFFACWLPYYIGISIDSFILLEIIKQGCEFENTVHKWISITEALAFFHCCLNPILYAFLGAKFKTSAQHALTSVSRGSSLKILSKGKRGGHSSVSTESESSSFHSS
assayComment: cell-based or functional assay
Square brackets hold non-standard residues; d marks the D form. Ends that are not written are not given here.
propertyLabel: Percent Inhibition of CXCR4/CXCL12 Induced p-MEK (100 nM Test Article)

- binder: "LERYHHS[dA]RSSLRGYTK [SEQ ID NO: 81]"
  result: "-16%"
- binder: "[dA]RRYHHSVRSSLRPYTK [SEQ ID NO: 33]"
  result: "7%"
- binder: "LERYHHS[dA]RSSLRPYTK-NH2 (N-terminus assumed; SMILES CC(C)C[C@H](NC(=O)[C@H](CO)NC(=O)[C@H](CO)NC(=O)[C@H](CCCNC(=N)N)NC(=O)[C@@H](C)NC(=O)[C@H](CO)NC(=O)[C@H](Cc1c[nH]cn1)NC(=O)[C@H](Cc1c[nH]cn1)NC(=O)[C@H](Cc1ccc(O)cc1)NC(=O)[C@H](CCCNC(=N)N)NC(=O)[C@H](CCC(=O)O)NC(=O)[C@@H](N)CC(C)C)C(=O)N[C@@H](CCCNC(=N)N)C(=O)N1CCC[C@H]1C(=O)N[C@@H](Cc1ccc(O)cc1)C(=O)N[C@H](C(=O)N[C@@H](CCCCN)C(N)=O)[C@@H](C)O) [SEQ ID NO: 57]"
  result: "10%"
- binder: "LERFHHSVRSSLRPYTK [SEQ ID NO: 54]"
  result: "46%"
- binder: "LERYHHS[dA]RSSLRPYT [SEQ ID NO: 5]"
  result: "-20%"

# credit: patent US20220395553A1
